- System: RARa homodimer (NR concentration 270 nM)
- assay.info: PBM binding z-score (relative to random genomic background probes); higher = stronger binding; sequences stand for … in GC…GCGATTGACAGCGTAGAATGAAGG
# cutoff -0.2 applies to PBM binding z-score; >= gives Y, < gives N

Record excerpt, results attached:
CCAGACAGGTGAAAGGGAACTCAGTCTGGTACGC : Y
CCTCGGAGGACAACAGGAGGCCAGAGCTGCCAGA : N
CTACCAAGGTGAACCAGGTCGTTGATTACTATTC : N

Query: Quick check: does TGAATGAGGTTATAAGATCACGGAACGTTGCAAA have PBM binding z-score greater than or equal to -0.2?
Reply: Y

Query: Decide: is the reported value of PBM binding z-score for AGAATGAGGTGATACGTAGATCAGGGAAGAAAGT equal to or greater than -0.2?
Reply: Y

Query: Does PBM binding z-score meet or surpass -0.2 for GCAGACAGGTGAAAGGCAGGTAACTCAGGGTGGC ?
Reply: Y

Query: Is reported PBM binding z-score greater than or equal to -0.2 here: ATCTCTAGGTAACCAAGTTCAGAGAATGCCGAAC
Reply: Y

Query: Kindly determine if PBM binding z-score recorded for CATACAGGGTCAGCGAGGCCAGAGTAGGGACGGC is above or exactly -0.2.
Reply: Y

Query: hey, is PBM binding z-score for this one >= -0.2? CTCGAAAGGTCGTGCTGAGGTGAGTATACCAAAC
Reply: N

Query: Decide: PBM binding z-score of CCTTACGGGTCACTGACAGGTTATAGCCTTTGGA >= -0.2?
Reply: Y

Query: Could you tell me if the measured PBM binding z-score of CAAACTAGGTCCAGGTCAAAGTCGGTTTGTGCCA reaches -0.2 or more?
Reply: Y

Query: Kindly determine if PBM binding z-score recorded for ACTCGGAGGACAAAGGTCAGAGTTACGCCAGTGA is above or exactly -0.2.
Reply: Y

Query: Please check the record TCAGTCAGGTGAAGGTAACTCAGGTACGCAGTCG and state if its PBM binding z-score is at or above -0.2.
Reply: Y

Query: State whether the measured PBM binding z-score reaches -0.2, counting equality as reaching it, for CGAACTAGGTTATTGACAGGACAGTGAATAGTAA
Reply: Y

Query: // inclusive: PBM binding z-score at least -0.2? input: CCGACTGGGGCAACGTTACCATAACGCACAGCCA
Reply: Y

Query: Form field: PBM binding z-score at least -0.2? Entry: GCTCGGAGGACAAGGTCTGAGCTTTGTCCGTAGA
Reply: N

Query: Has TCTGGTAGATCAACAGGAGGTTAAGAAAGATCGA a recorded PBM binding z-score greater than or equal to -0.2?
Reply: Y

Query: Reported PBM binding z-score reaches at least -0.2 for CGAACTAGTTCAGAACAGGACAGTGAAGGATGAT ?
Reply: N

Query: State whether the measured PBM binding z-score reaches -0.2, counting equality as reaching it, for CCTGCTAGATCAATGGTCAGCTAAAGCAGCTCGC
Reply: N

====

- Test system: RARb:RXRa (NR concentration 270 nM, RXRa partner concentration 90 nM)
- assay.info: PBM binding z-score (relative to random genomic background probes); higher = stronger binding; sequences stand for … in GC…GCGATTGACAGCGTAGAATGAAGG
Class True: PBM binding z-score at least 1. Class False: PBM binding z-score below 1.

Examples with answers:
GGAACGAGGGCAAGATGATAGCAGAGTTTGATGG : True
GCGACTGGGGCAAAGCAAGTTACCATAAGGTTGG : False
CCTAGTTGGTCAGGAGGACACACACCGGATATGA : True
TCATATAGGTAAAAGGTGGAAGTCGGTGTGGTAA : False

API: the following record is the query input.
Query: Check this sequence for PBM binding z-score at or above 1: TCGAGTAGGTTACCAATGGGGGATTCAGCTTTCT
Reply: True

====

- Tested on: VDR homodimer (NR concentration 270 nM)
- assay.info: PBM binding z-score (relative to random genomic background probes); higher = stronger binding; sequences stand for … in GC…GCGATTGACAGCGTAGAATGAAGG
Catalogue of sequences with associated PBM binding z-score
Hey, just send me the number, nothing else.

These solved cases illustrate the format of a correct answer.
GCTTGTAGATAAAGGTTAAGAAAGACTAAGCTAA : -0.0184
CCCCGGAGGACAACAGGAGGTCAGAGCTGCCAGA : 1.77
CCAGACAGGTGAGAAGGTAACCCAGCCTCGATTA : -0.253
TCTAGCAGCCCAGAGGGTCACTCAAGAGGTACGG : 0.294
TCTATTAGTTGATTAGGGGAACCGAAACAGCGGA : 0.458

Query: What is its PBM binding z-score for VDR homodimer (NR concentration 270 nM)? Entry: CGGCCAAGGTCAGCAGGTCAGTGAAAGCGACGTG
Reply: 1.09

Query: State its PBM binding z-score on VDR homodimer (NR concentration 270 nM): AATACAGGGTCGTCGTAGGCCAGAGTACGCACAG
Reply: 1.78

Query: Item ACTAGTTGGTCAGCTGAGGTCAGACACAATTCGG with VDR homodimer (NR concentration 270 nM) - PBM binding z-score?
Reply: 1.76

Query: Query for VDR homodimer (NR concentration 270 nM): what PBM binding z-score does the record show for TGTAGCAGGCCAGAGGGTCACTCAAGAGGTACGG ?
Reply: 0.427

Query: Write down the reported PBM binding z-score of GCAGACATGTGAAACGCAGGTAACTCAGGGTGGC , test system: VDR homodimer (NR concentration 270 nM).
Reply: -1.27

Query: Report PBM binding z-score for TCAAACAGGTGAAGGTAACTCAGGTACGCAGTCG tested on VDR homodimer (NR concentration 270 nM).
Reply: 0.467

====

Each entry below lists one item and its recorded PBM binding z-score value.
- Tested on: FXR:RXRa (NR concentration 270 nM, RXRa partner concentration 90 nM)
- assay.info: PBM binding z-score (relative to random genomic background probes); higher = stronger binding; sequences stand for … in GC…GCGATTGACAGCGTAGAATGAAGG
Answer as a number with no unit attached.

Example entries and their recorded answers appear below.
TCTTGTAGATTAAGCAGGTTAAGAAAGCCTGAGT : 0.514
GCTTACGGGTCAAAGGTTATAGCTTGAATAGAAT : 6.94
TAGCCTAGGTCATGCGGGCCAGGATAGTGTCGGC : 3.94
CAAACTAGGTCACGAAACGTCAAAGTCGAATGAC : 4.62
CTCGAAAGGTCGGTTGAGGTGAGTGTACGGATAA : 2.54
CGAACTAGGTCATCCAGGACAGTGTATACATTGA : 4.45
TGAATGAGGTTAACGATCAGGGAACGTGGCGTCG : 1.98
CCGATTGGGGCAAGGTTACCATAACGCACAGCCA : 0.189

Alright, here's another sequence for you.
Query: Fill in the recorded PBM binding z-score for this sequence, with FXR:RXRa (NR concentration 270 nM, RXRa partner concentration 90 nM) as test system: GCAGAGAGGTGAAACGCAGGTAACTCAGGGTGGC
Reply: 0.782

====

PBM binding z-score by entry:
- System: PPARg homodimer (NR concentration 180 nM)
- assay.info: PBM binding z-score (relative to random genomic background probes); higher = stronger binding; sequences stand for … in GC…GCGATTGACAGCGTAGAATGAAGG

For orientation, consider the following solved cases.
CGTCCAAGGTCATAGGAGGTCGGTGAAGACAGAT : 2.9
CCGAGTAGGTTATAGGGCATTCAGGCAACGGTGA : 1.05
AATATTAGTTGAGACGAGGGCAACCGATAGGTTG : 1.36
ATAGCAAGGTGATCGTGAGGTCGTTGATACTAAC : 0.565
CCGACTGGGGCAAGGATACCATAACGCACAGCCA : 0.238
AGAATGAGGTTAAGATCAAGGAAACAGAATACAT : 0.598

Query: // query PBM binding z-score value for entry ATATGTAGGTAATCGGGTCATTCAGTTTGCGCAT
Reply: 1.76

Query: What measured PBM binding z-score goes with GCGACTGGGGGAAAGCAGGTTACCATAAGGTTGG ?
Reply: 0.279

====

- Tested on: PXR homodimer (NR concentration 270 nM)
- assay.info: PBM binding z-score (relative to random genomic background probes); higher = stronger binding; sequences stand for … in GC…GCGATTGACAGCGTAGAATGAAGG
Entries annotated with measured PBM binding z-score
Please give the numeric answer without any surrounding text.

Below, each entry is followed by its recorded PBM binding z-score result.
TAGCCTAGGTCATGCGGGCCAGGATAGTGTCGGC : -0.269
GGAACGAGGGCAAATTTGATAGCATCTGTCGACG : 0.0405

For the next question, use this sequence.
Query: Please tell me: PBM binding z-score of ATCGAAATGTCGAGGTGAGTATAGAGAAAGGGAA , system PXR homodimer (NR concentration 270 nM)?
Reply: -0.513

From: the supplement of paper PMC6555819
